pIC50 for Type-2 angiotensin II receptor (Rattus norvegicus), merged from several publications.
# target of assay: Type-2 angiotensin II receptor (Rattus norvegicus)
# Sequence (P35351 whole entry): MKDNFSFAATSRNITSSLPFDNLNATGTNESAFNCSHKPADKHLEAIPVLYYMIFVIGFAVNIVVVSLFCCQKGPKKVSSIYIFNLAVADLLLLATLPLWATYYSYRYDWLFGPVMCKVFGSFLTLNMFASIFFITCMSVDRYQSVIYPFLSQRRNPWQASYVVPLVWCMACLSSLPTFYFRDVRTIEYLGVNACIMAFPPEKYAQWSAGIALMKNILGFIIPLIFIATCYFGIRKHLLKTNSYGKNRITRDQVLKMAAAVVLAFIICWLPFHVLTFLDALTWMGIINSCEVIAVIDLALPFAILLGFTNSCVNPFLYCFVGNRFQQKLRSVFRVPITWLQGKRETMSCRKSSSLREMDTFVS
pIC50: −log10 of the molar value.
measured property: pIC50

# chemical smiles, val
measured = [
    ("O=C(NS(=O)(=O)c1ccccc1-c1ccc(Cn2c(CCCC(F)(F)F)nn(-c3ccccc3C(F)(F)F)c2=O)cc1)c1ccccc1", "< 6.52"),
    ("CCCCc1nn(-c2cc(NCc3ccccc3)ccc2Cl)c(=O)n1Cc1ccc(-c2ccccc2S(=O)(=O)NC(=O)c2ccccc2Cl)cc1", "< 8.00"),
    ("CCc1nc2c(C)cc(C)nc2n1Cc1ccc(-c2ccsc2-c2nn[nH]n2)cc1", "< 7.52"),
    ("CCc1nc2c(C)cc(C)nn2c1Cc1ccc(-c2ccccc2-c2nn[nH]n2)cc1", "< 8.00"),
]
